- SYSTEM NAME: JAK3 (Homo sapiens, UniProt P52333)
- Sequence (P52333 whole entry): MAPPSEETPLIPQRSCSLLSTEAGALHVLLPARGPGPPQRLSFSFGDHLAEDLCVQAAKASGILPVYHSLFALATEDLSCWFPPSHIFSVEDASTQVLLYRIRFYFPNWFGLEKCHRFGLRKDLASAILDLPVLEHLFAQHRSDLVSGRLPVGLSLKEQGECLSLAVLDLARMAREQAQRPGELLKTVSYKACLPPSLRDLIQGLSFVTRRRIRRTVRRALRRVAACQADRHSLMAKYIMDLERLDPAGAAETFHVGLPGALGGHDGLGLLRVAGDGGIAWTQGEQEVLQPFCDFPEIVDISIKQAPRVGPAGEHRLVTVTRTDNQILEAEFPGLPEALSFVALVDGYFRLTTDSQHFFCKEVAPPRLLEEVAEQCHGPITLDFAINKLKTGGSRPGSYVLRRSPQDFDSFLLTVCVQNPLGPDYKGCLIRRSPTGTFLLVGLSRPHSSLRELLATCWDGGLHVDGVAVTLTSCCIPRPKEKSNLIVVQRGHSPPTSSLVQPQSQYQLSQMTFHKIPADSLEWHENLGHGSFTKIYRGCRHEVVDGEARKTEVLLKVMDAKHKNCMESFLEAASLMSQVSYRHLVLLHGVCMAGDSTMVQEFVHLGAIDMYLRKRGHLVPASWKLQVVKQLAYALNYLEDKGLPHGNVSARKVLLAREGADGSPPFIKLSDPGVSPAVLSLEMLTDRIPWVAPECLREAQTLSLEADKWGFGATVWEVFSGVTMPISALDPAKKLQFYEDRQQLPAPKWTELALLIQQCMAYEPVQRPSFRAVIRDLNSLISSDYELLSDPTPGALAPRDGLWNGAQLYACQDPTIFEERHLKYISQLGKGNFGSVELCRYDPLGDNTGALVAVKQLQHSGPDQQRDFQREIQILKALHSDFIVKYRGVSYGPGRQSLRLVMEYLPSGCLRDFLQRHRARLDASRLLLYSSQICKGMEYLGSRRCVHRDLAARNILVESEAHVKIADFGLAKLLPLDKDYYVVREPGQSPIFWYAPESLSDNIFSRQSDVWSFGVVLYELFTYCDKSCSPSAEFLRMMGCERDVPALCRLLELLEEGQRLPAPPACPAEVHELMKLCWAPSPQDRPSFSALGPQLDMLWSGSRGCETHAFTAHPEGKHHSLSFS
- TEST DETAILS: JAK assay (KINASE-GLO luminescent kinase assay), JAK3
- Format: biochemical
- CONDITION DETAILS: 10 nM JAK enzyme, 800 nM Abl peptide, room temperature 75 min
Let's look at some compounds and their measured IC50.

Example results:
Requested read-out: IC50. Entry: CC(C)(C)OC(=O)N1CC(CF)(Cn2cc(-c3nc(Nc4ccc(C(N)=O)cc4)ncc3Cl)cn2)C1 [CC(C)(C)OC(═O)N1CC(CF)(C1)C[N]2C═C] < 100 nM

Requested read-out: IC50. Entry: Cn1cc(Nc2ncc(Cl)c(-c3cnn(CCC4CC4)c3)n2)cn1 [C[N]1C═C(NC2═NC(═C] < 10 nM

Requested read-out: IC50. Entry: C=CCNc1ncc(C)c(-c2cnn(CCC#N)c2)n1 [CC1═C(N═C(NCC═C)N═C1)C2═C[N]] < 100000 nM

Requested read-out: IC50. Entry: Cc1cnc(NC(=O)Nc2ccc(Cl)cc2)nc1-c1cnn(CC2(CF)CC2)c1 [CC1═C(N═C(NC(═O)NC2═CC═C] > 50000 nM

Requested read-out: IC50. Entry: CN1CCN(c2ccc(Nc3ncc(Cl)c(-c4cnn(CC5(C#N)CC5)c4)n3)cn2)CC1 [CN1CCN(CC1)C2═NC═C(NC3═NC(═C] < 100000 nM

Requested read-out: IC50. Entry: Cc1cnc(Nc2ccc(CNC(=O)OC(C)(C)C)cc2)nc1-c1cnn(CC2(CF)CC2)c1 [CC1═C(N═C(NC2═CC═C(CNC(═O)OC] < 100 nM

Next:
Requested read-out: IC50. Entry: Cc1cnc(NC(=O)Oc2ccc(Cl)cc2)nc1-c1cnn(CC2(CF)CC2)c1 [CC1═C(N═C(NC(═O)OC2═CC═C] < 100000 nM

Requested read-out: IC50. Entry: Cc1cnc(Nc2ccc(N3CC4(COC4)C3)cc2)nc1-c1cnn(CC2(CF)CC2)c1 [CC1═C(N═C(NC2═CC(═C(C═C2)N3CC4] < 10 nM

Requested read-out: IC50. Entry: Cc1cnc(Nc2cc(C(=O)O)ns2)nc1-c1cnn(CC2(CF)CC2)c1 [CC1═C(N═C(NC2═CC(═NS2)C] < 100 nM

Requested read-out: IC50. Entry: N#CCCn1cc(-c2nc(Nc3cc(C(F)(F)F)no3)ncc2Cl)cn1 [FC(F)(F)C1═NOC(═C1)NC2═NC(═C] > 50000 nM
